Tested on: Oryza sativa
protocol_notes: Phytotoxicity against three-leaf stage Oryza sativa (rice) under green-house condition by water injection treatment method
Assay type: organism-based
GR20 for assorted compounds
Your answer should be a number followed by the unit of measure.

>>> observed_measurement("COc1cnc(OC)n2nc(NS(=O)(=O)c3c(OCCF)cccc3C(F)(F)F)nc12")
"14 gAi/ha"

Assign GR20 to the following record: COc1cnc(OC)n2nc(NS(=O)(=O)c3c(OCC(F)F)cccc3C(F)(F)F)nc12 75 gAi/ha

Dear colleague, please send me the reported GR20 for COc1cnc(OC)n2nc(NS(=O)(=O)c3c(OC(CF)CF)cccc3C(F)(F)F)nc12 when you can. 140 gAi/ha

Note GR20 for the compound shown: CCOc1cccc(C(F)(F)F)c1S(=O)(=O)Nc1nc2c(OC)cnc(OC)n2n1 1 gAi/ha

Quickly give me recorded GR20 for COc1cnc(OC)n2nc(NS(=O)(=O)c3c(OCC(F)(F)F)cccc3C(F)(F)F)nc12 51 gAi/ha
